Data credit: patent US20250388593A1

experimental-system: CRBN truncate (318-426) (Homo sapiens (Human), UniProt Q96SW2)
Sequence (Q96SW2 318-426): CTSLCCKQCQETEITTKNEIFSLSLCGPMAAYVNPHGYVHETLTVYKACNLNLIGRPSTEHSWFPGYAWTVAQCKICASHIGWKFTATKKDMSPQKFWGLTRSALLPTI
procedure-details: Measurement of molecular interactions using surface plasmon resonance (SPR), Biacore T200
Type: binding
setup-conditions: 25° C., immobilized CRBN truncate, upper limit of measurement 200 μM
pKd: −log10 of the molar value.
measurement-type: pKd

For record Cc1sc2c(c1C)C(c1ccc(Cl)cc1)=N[C@@H](CC(=O)NCCCCCCCCCCC(=O)N1CCC(c3ccc(C45CCC(O4)C(=O)NC5=O)cc3)CC1)c1nnc(C)n1-2 (stereo in doubt) [Example 358] the listed pKd is > 4.30

For record CC(C)(C)OC(=O)c1ccc(N2CCC3(CCCC(=O)NC3=O)C2)nc1 (centres unmarked) [Example 90-1] the listed pKd is > 4.30

For record CC(C)(C)OC(=O)c1ccc(N2CCC3(CC2)COCC(=O)NC3=O)nc1 [Example 16] the listed pKd is ≤ 4.00

For record N#Cc1cc([N+](=O)[O-])ccc1N1CCC2(CCCC(=O)NC2=O)C1 (centres unmarked) [Example 177] the listed pKd is 4.00 to 4.30

For record O=C1CCCC(CNc2ccc(F)cc2)C(=O)N1 (centres unmarked) [Example 25] the listed pKd is ≤ 4.00
